Assay: qHTS assay to identify small molecule agonists of the TGF-beta/Smad signaling pathway (AID 1346859); note: % is set by controls: 0 for no effect and ±100 for the full control effect
Conditions: SBE-bla HEK293T, TGF-beta/Smad beta-lactamase reporter, 5 h; series mostly up to 76.8 µM
Results filed as inconclusive are left out. Activity calls are given as the source filed them. Calls come from the whole dose curve; as a rule, active = well fitted activation curve with a large enough effect in the signal ratio in the repeat runs (not every such curve was filed as active); inconclusive = weak or mixed curves; inactive = flat fitted curve, though single readings scatter; the % refers to the signal ratio.
MEASURE: activation

* CCOC(=O)/C=C(C)/C=C/C[C@@H](C)CCCC(C)C | inactive
* COC(C)(C)C | inactive
* Cc1ccccc1CO[C@@H]1C[C@@]2(C(C)C)CC[C@]1(C)O2 | inactive
* CC(=O)[C@H]1CC[C@H]2[C@@H]3CC[C@H]4C[C@H](O)CC[C@]4(C)[C@H]3C(=O)C[C@]12C | inactive
* O=NN1CCCCC1 | inactive
* O=[N+]([O-])c1ccc(CBr)cc1 | inactive
* COC(=O)c1ccccc1S(=O)(=O)NC(=O)N(C)c1nc(C)nc(OC)n1 | inactive

----------
Biological target: Acetylcholinesterase (Homo sapiens) (UniProt P22303)
Sequence (P22303 whole entry, looked up): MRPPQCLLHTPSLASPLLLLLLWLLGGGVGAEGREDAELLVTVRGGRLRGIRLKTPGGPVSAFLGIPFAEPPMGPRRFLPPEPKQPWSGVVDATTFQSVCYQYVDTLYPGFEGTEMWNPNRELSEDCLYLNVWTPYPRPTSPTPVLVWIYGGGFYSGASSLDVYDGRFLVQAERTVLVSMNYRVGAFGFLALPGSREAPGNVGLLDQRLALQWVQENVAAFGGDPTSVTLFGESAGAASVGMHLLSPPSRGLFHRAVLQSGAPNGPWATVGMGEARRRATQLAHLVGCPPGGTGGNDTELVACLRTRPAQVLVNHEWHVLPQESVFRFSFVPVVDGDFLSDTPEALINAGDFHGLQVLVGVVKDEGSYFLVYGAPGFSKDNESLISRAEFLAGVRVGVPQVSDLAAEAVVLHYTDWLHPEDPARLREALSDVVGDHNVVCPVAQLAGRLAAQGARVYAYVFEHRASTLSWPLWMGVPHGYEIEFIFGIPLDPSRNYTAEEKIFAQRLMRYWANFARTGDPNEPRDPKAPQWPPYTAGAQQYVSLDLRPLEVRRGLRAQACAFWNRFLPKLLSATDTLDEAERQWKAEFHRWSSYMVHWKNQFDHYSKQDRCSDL
Test: Acetylcholinesterase (AChE) small molecule antagonists: colormetric cell-based qHTS assay (AID 1347395); note: nearly all actives have a fitted effect of over 30% in size
Details: SH-SY5Y cells AChE activity, colorimetric (Ellman); series mostly up to 115 µM
Source text: National Center for Advancing Translational Sciences [NCATS] Division of Preclinical Innovation [DPI] U.S. Environmental Protection Agency [EPA] National Institutes of Environmental Health Sciences [NIEHS] National Toxicology Program [NTP] U.S. Food and Drug Administration [FDA] Acetylcholinesterase (AChE) is the primary cholinesterase in the body that hydrolyzes a key neurotransmitter, acetylcholine. Inhibition of AChE activity can lead to neurotoxicity. […]
Records with an inconclusive call do not appear. The source made the active and inactive calls. The call rests on the fitted dose curve.
Outcomes: true (1) for active, false (0) for inactive

• CCCCN(CCCCO)N=O = false (0)
• ClC(Cl)Br = false (0)
• C=C(C)[C@@H]1CC=C(C=O)CC1 = false (0)
• Nc1cnn(-c2ccccc2)c(=O)c1Cl = false (0)
• CC1(C)CON(Cc2ccccc2Cl)C1=O = false (0)
• CC(=O)C(Cl)Cl = false (0)
• CC(N)=S = false (0)
• CN(N=O)C(N)=O = false (0)
• C=C(C)CN(CC)c1c([N+](=O)[O-])cc(C(F)(F)F)cc1[N+](=O)[O-] = false (0)
• CCCSC(=O)Cl = false (0)
• Nc1cc2c3c(c1)C(c1ccccc1)=N[C@@H](NC(=O)c1cccnc1)C(=O)N3CC2 = false (0)
• CC1CCCCC1NC(=O)Nc1ccccc1 (stereo unspecified) = false (0)
• N#CCNCC#N = false (0)
• OC(c1ccccc1)(c1ccccc1)C1CCNCC1 = false (0)
• O=[N+]([O-])c1cccc2cccnc12 = false (0)
• NC1=NC(=O)C(c2ccccc2)O1 (stereo unspecified) = false (0)
• N#CC(O)c1ccccc1 (stereo unspecified) = false (0)
• N#Cc1c(Cl)cccc1Cl = false (0)
• c1cc2c(c(N3CCNCC3)c1)OCCO2 = false (0)
• C=CCC1=C(C)[C@@H](OC(=O)[C@@H]2[C@@H](C=C(C)C)C2(C)C)CC1=O = false (0)
• CNC(=O)O/N=C(\C)SC = true (1)
• CC(CC(C#N)(c1ccccc1)c1ccccc1)N(C)C (stereo unspecified) = false (0)
• CC(Cl)(Cl)[N+](=O)[O-] = false (0)
• OCCBr = false (0)
• O=C(NCO)NCO = false (0)
• O=[N+]([O-])c1cc(Cl)c(Cl)c(Cl)c1 = false (0)
• Clc1cccc(N2CCNCC2)c1 = false (0)
• CNNC = false (0)
• CCC(=O)c1ccccc1 = false (0)
• O=C(CCN1CC1)OCC(CO)(COC(=O)CCN1CC1)COC(=O)CCN1CC1 = false (0)
• CC(=O)[C@H]1CC[C@H]2[C@@H]3CC[C@H]4C[C@H](O)CC[C@]4(C)[C@H]3C(=O)C[C@]12C = false (0)

----------
Test: qHTS assay to identify small molecule antagonists of the estrogen related receptor signaling pathway with the pleiotropic PPARgamma coactivator (PGC) from Tox21 10K library - cell viability counter screen (AID 1224840); note: nearly all actives have a fitted effect of over 40% in size
Conditions: PGC/ERR reporter cells viability, CellTiter-Fluor, 17.5 h; series mostly up to 92.4 µM
Inconclusive results are not listed. Active and inactive are the calls of the source. Calls follow the shape of the dose curve; as a rule, active = well fitted cell-killing curve with a large enough effect in the repeat runs (not every such curve was filed as active); inconclusive = weak or mixed curves, or effect the other way; inactive = no such curve, though single readings can be large or run the other way.
Outcomes: t for active, f for inactive

- NC(=S)C(N)=S: f
- O=C(NCO)NCO: f
- CCOP(=S)(OCC)Oc1ncn(-c2ccccc2)n1: f
- ClC(Br)Br: f
- CCC(Cl)[N+](=O)[O-] (configuration not stated): f
- CCOP(=S)(OCC)Oc1cc(-c2ccccc2)on1: f
- CCC#N: f
- CNC(=O)Oc1c(C(C)(C)C)cc(C)cc1C(C)(C)C: f
- CCOP(=S)(Oc1cnc(C(C)(C)C)nc1)OC(C)C (configuration not stated): f
- CCC(=O)C(CCN(C)C)(c1ccccc1)c1ccccc1: f
- CNC(=O)Oc1cccc(C(C)C)c1: f
- OC(c1ccccc1)(c1ccccc1)C1CCNCC1: f
- N#CCNCC#N: f
- N#Cc1ccncc1: f
- N#CC(Cl)(Cl)Cl: f
- CCCCCCI: f
- Nc1cnn(-c2ccccc2)c(=O)c1Cl: f
- O=C1OC(CCN2CCCCC2)OC1(c1ccccc1)c1ccccc1 (configuration not stated): f
- BrCCCCCCBr: f
- CNC(=O)Oc1ccc(N(C)C)c(C)c1: f
- O=S(=O)(O)C(F)(F)C(F)(F)C(F)(F)C(F)(F)C(F)(F)C(F)(F)F: f
- CNCC(=O)c1ccc(O)c(O)c1: f
- CSc1nc(N=[N+]=[N-])nc(NC(C)C)n1: f
- CC(CCc1ccccc1)NC(C)C(O)c1ccc(O)cc1 (configuration not stated): f
- OC(Cn1cncn1)(c1ccc(F)cc1)c1ccccc1F (configuration not stated): f
- C#C[C@]1(O)C=C[C@H]2[C@@H]3CCC4=CC(=O)CC[C@@H]4[C@H]3CC[C@@]21CC: f
- C[N+](C)=CCl: f
- COP(=S)(OC)Oc1c(Cl)cc(C)cc1Cl: f
- CCCCc1c(C)nc(NCC)[nH]c1=O: f
- CCOP(=O)(OCC)OP(=O)(OCC)OCC: f
- ClCCCN1CCN(c2cccc(Cl)c2)CC1: f
- COP(N)(=S)Oc1ccccc1C(=O)OC(C)C (configuration not stated): f
- CCCCOC(=O)c1ccccc1C(=O)O: f
- CCCSP(=S)(OCC)Oc1ccc(Cl)cc1Cl (configuration not stated): f
- O=[N+]([O-])c1cc(Cl)c(Cl)c(Cl)c1: f
- CC(C)COP(=O)(OCC(C)C)OCC(C)C: f
- CC(=O)Nc1cc([As](=O)(O)O)ccc1O: f
- CC(C(O)c1ccccc1)N(C)C/C=C/c1ccccc1 (configuration not stated): f
- CSc1ccc(C(=O)C(C)(C)N2CCOCC2)cc1: f
- O=C(CCN1CC1)OCC(CO)(COC(=O)CCN1CC1)COC(=O)CCN1CC1: f
- COC(=O)C1=CCCN(C)C1: f
- CCC1(c2ccccc2)C(=O)NC(=O)NC1=O: f
- O=[N+]([O-])c1ccc2c3c(cccc13)CC2: f
- OCCSCSCCO: f
- Cc1ncsc1CCCl: f
- CC(C)(C)C(=O)C(Oc1ccc(Cl)cc1)n1cncn1 (configuration not stated): f
- C[C@@H]1CN(C2CCC(C#N)(c3ccc(F)cc3)CC2)CC[C@]1(C(=O)O)c1ccccc1 (some centres not stated): f
- COc1cc(OC)nc(Sc2cccc(Cl)c2C(=O)O)n1: f
- ClC(Cl)C(Cl)Cl: f
- Cc1nnc2n1-c1sc(CCC(=O)N3CCOCC3)cc1C(c1ccccc1Cl)=NC2: f
- CC1(C(=O)Nc2ccc(O)c(Cl)c2Cl)CCCCC1: f
- CCOP(=S)(OCC)SCSP(=S)(OCC)OCC: f
- CCN(CC)C(C)C(=O)c1ccccc1 (configuration not stated): f
- CC(C)CP(=S)(S)CC(C)C: t
- CNC(=O)N(C)c1nc2ccccc2s1: f
- CCC/C(=N\OCC)C1=C(O)CC(CC(C)SCC)CC1=O (configuration not stated): f
- O=CNC(N1CCN(C(NC=O)C(Cl)(Cl)Cl)CC1)C(Cl)(Cl)Cl (configuration not stated): f

----------
Experiment: qHTS assay to identify small molecule agonists of H2AX (AID 1224845); note: % is set by controls: 0 for no effect and ±100 for the full control effect
Conditions: CHO-K1 phospho-H2AX Ser139 HTRF, 3 h; series mostly up to 154 µM
Inconclusive results are not listed. The source made the active and inactive calls. Calls follow the shape of the dose curve; as a rule, active = well fitted activation curve with a large enough effect in the signal ratio in the repeat runs (not every such curve was filed as active); inconclusive = weak or mixed curves; inactive = flat fitted curve, though single readings scatter; the % refers to the signal ratio.
MEASURE: outcome

- C1CCC(C2CCCCC2)CC1: inactive
- Clc1cccc(N2CCNCC2)c1: inactive
- CC1COC2(c3ccccc3Cl)c3cc(Cl)ccc3NC(=O)CN12 (stereo not given): inactive
- CC(=O)Nc1cc([As](=O)(O)O)ccc1O: inactive
- COC(=O)c1ccccc1S(=O)(=O)NC(=O)N(C)c1nc(C)nc(OC)n1: inactive
- CNC(=O)O/N=C(\C)SC: inactive
- C=CC1CC=CCC1 (stereo not given): inactive
- Clc1ccccc1N1CCNCC1: inactive
- Nc1c(Br)cc([N+](=O)[O-])cc1[N+](=O)[O-]: inactive
- ClC(Br)Br: inactive
- Cc1nnc2n1-c1sc(CCC(=O)N3CCOCC3)cc1C(c1ccccc1Cl)=NC2: inactive
- CC1(C)C(=O)NC(=O)NC1=O: inactive
- C[C@]12CC[C@H]3[C@@H](CCC4=CC(=O)CC[C@@]43C)[C@@H]1CC[C@@H]2C(=O)O: inactive
- N#CC(CCc1ccc(Cl)cc1)(Cn1cncn1)c1ccccc1 (stereo not given): inactive
- O=C(O)C(Br)CBr (stereo not given): inactive
- c1coc(-c2nc3ccccc3[nH]2)c1: inactive
- CCN(CC)CCOC(=O)C(C)(c1ccccc1)c1ccccc1: inactive
- CCCCOC(=O)c1ccccc1C(=O)O: inactive
- Oc1c(Cl)cccc1Cl: inactive
- N#CCBr: inactive
- CC1CCCCC1NC(=O)Nc1ccccc1 (stereo not given): inactive
- CCCCCCI: inactive
- CC1(C(=O)Nc2ccc(O)c(Cl)c2Cl)CCCCC1: inactive
- c1ccc(N2CCNCC2)cc1: inactive
- CC(CCc1ccccc1)NC(C)C(O)c1ccc(O)cc1 (stereo not given): inactive
- CCN(CC)c1nc(C)cc(OP(=S)(OC)OC)n1: inactive
- COc1ccc2c(c1OC)CN1CCc3cc4c(cc3C1C2)OCO4 (stereo not given): inactive
- CCOP(=S)(OCC)Oc1cc(-c2ccccc2)on1: inactive
- CC(CC(C#N)(c1ccccc1)c1ccccc1)N(C)C (stereo not given): inactive
- N#CC(O)c1ccccc1 (stereo not given): inactive
- CCCCP(CCCC)CCCC: inactive
- CCOC(=O)CP(=O)(OCC)OCC: inactive
- NC(=O)c1cc([N+](=O)[O-])cc([N+](=O)[O-])c1: inactive
- O=C1CN=C(c2ccccc2)c2cc([N+](=O)[O-])ccc2N1: inactive
- ClC(Cl)(Cl)C(Cl)(Cl)Cl: inactive
- CCOP(=S)(OCC)Oc1nc(Cl)n(C(C)C)n1: inactive
- COCC(=O)N(c1c(C)cccc1C)N1CCOC1=O: inactive
- CNC(=O)Oc1ccccc1C1OCCO1: inactive
- O=C(Cc1ccccc1)OCc1ccccc1: inactive
- CC(COc1ccc(Oc2ccccc2)cc1)Oc1ccccn1 (stereo not given): inactive
- CC1=C(C(=O)Nc2ccccc2)S(=O)(=O)CCO1: inactive
- CCOC(=O)C1(c2ccccc2)CCN(CCc2ccc(N)cc2)CC1: inactive
- CN1C[C@@H](NS(=O)(=O)N(C)C)C[C@@H]2c3cccc4c3c(cn4C)C[C@H]21: inactive
- ClCC(Cl)Cl: inactive
- O=C(O)c1ccc2[nH]cc(CCCCN3CC=C(c4ccccc4)CC3)c2c1: inactive

Cited source: PubChem BioAssay (Tox21)
